Assay: Clearance in monkey
Format: ADME, organism-based, Macaca mulatta
Conditions: rhesus monkey, in vivo
ASSAY_METRIC: clearance (mL/min/kg)
Write it as a number; the unit mL/min/kg goes unstated.

Recorded clearance (compound `Cc1ccc(F)cc1CO[C@H]1CCc2ccc(N3CCNC[C@H]3C)nc21` ): 8.6

###

Assay: Half life in rat hepatocyte at 1 mM
Type: ADME, cell-based, Liver
Details: hepatocytes
ASSAY_METRIC: half-life (min)
Write the answer as a number in min, unit excluded.

half-life reading for `Cc1ccc(F)cc1CO[C@H]1CCc2ccc(N3CCNC[C@H]3C)nc21` : 4.7

###

Test: Half life in rat microsomes at 0.3 mM
Format: ADME, Microsome
ASSAY_METRIC: half-life (min)
Field: numeric (min). Do not append units.

Value of half-life reported for the compound `Cc1ccc(F)cc1CO[C@H]1CCc2ccc(N3CCNC[C@H]3C)nc21` is 2.2

###

In this section, each of the compounds is paired with its reported Activity.
Target: 5-hydroxytryptamine receptor 2A (Homo sapiens, UniProt P28223)
Sequence (P28223 whole entry): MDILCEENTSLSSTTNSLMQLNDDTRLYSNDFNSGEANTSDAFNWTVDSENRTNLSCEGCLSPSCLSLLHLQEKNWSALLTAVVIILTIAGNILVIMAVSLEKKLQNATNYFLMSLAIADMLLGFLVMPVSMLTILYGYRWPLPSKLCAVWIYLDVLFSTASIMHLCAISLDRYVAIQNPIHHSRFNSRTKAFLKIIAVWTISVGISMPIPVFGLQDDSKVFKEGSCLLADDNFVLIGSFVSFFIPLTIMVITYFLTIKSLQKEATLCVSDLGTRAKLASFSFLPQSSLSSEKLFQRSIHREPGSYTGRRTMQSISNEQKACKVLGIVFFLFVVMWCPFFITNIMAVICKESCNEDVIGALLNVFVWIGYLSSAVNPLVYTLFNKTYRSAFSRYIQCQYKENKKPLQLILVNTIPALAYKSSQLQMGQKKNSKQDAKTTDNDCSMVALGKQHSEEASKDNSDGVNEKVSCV
Assay: Agonist activity against human 5HT2A receptor by FLIPR assay relative to 5HT
Assay type: functional
Express the result in % but write the number alone.

Below, each entry is followed by its recorded Activity result.
>>> df
                                   compound  display_unit  recorded_measurement
0  C[C@@H]1CNCCN1c1ccc2c(n1)[C@@H](OCc1cc(F)ccc1F)CC2             %                    18
1  Fc1ccc(F)c(CO[C@H]2CCc3ccc(N4CCNCC4)nc32)c1             %                    13
2                  c1cc2c(nc1N1CCNCC1)CCCC2             %                    60
3   Clc1ccccc1O[C@@H]1CCc2ccc(N3CCNCC3)nc21             %                    46
4  Clc1ccccc1O[C@@H]1CCCc2ccc(N3CCNCC3)nc21             %                    76
5    Clc1ccccc1O[C@H]1CCc2ccc(N3CCNCC3)nc21             %                    87

# Activity of `Clc1ccccc1O[C@H]1CCCc2ccc(N3CCNCC3)nc21` = 93

In plain terms, Clc1ccccc1OC1CCc2ccc(N3CCNCC3)nc21 (stereo not drawn) has a documented Activity of 75

###

pEC50: recorded values
Biological target: UniProt:P41595
Sequence (P41595 whole entry): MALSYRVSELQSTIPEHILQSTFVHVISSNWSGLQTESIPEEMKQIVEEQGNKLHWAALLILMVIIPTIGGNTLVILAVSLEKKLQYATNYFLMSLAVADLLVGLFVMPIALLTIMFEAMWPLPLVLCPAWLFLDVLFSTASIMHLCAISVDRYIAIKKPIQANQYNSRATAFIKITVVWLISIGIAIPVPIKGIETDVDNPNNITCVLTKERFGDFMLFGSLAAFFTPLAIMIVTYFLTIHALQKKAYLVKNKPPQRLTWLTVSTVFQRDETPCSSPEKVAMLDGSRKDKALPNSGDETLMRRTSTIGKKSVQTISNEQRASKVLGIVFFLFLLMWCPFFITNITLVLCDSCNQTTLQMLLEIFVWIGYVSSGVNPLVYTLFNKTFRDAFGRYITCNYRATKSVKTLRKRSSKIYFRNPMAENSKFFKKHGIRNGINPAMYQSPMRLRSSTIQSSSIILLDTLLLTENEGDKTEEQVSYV
Assay: Agonist activity against human 5HT2B receptor by FLIPR assay
Assay type: functional
Recall that pEC50 is obtained by taking minus log10 of the concentration measured in molar.

The examples below pair each entry with its known result.
                                   molecule     system_name  assay_metric  recorded_measurement
0    Clc1ccccc1O[C@H]1CCc2ccc(N3CCNCC3)nc21  UniProt:P41595         pEC50                  6.52
1   Clc1ccccc1O[C@H]1CCCc2ccc(N3CCNCC3)nc21  UniProt:P41595         pEC50                  6.40
2  Clc1ccccc1O[C@@H]1CCCc2ccc(N3CCNCC3)nc21  UniProt:P41595         pEC50                  6.00
3  Fc1ccc(F)c(CO[C@H]2CCc3ccc(N4CCNCC4)nc32)c1  UniProt:P41595         pEC50                  5.57
4   Clc1ccccc1O[C@@H]1CCc2ccc(N3CCNCC3)nc21  UniProt:P41595         pEC50                  6.13
5  Cc1ccc(F)cc1CO[C@H]1CCc2ccc(N3CCNC[C@H]3C)nc21  UniProt:P41595         pEC50                  6.25

Reported pEC50 for Clc1ccccc1OC1CCc2ccc(N3CCNCC3)nc21 (configuration not stated) was 6.73

All values here come from ChEMBL document CHEMBL1153119.
